# Test system: CTG repeat expansion
# PROCEDURE_SUMMARY: Binding affinity to dsDNA CTG/CTG triad (unknown origin) assessed as change in melting temperature by […]
# Assay type: nucleic-acid assay
Friendly reminder: ΔTm below 0.2 °C is condition met, at or above is condition not met.

> print(dat)
                            compound.smiles          assay.target              class
1  Cc1ccc2ccc(NC(=O)OCCCNCCCOC(=O)Nc3ccccn3)nc2n1  CTG repeat expansion      condition met
2  Cc1ccc2ccc(NC(=O)OCCCNCCCOC(=O)Nc3ccc4ccccc4n3)nc2n1  CTG repeat expansion      condition met
3  Cc1ccc2ccc(NC(=O)OCCCNCCCOC(=O)Nc3ccc4ccc(C)nc4n3)nc2n1  CTG repeat expansion      condition met
4                 NCCCOC(=O)Nc1cc2ccccc2cn1  CTG repeat expansion  condition not met
5  Cc1ccc2ccc(NC(=O)OCCCNCCCOC(=O)Nc3cc4ccccc4cn3)nc2n1  CTG repeat expansion  condition not met

###

# Tested on: CTG repeat expansion
# PROCEDURE_SUMMARY: Binding affinity to dsDNA CTG/CTG triad (unknown origin) assessed as melting temperature at 50 uM […]
# Assay type: nucleic-acid assay
REPORTED_ENDPOINT: Tm (°C)

> print(dat)
                            compound.smiles  endpoint.value
1  Cc1ccc2ccc(NC(=O)OCCCNCCCOC(=O)Nc3ccc4ccc(C)nc4n3)nc2n1            27.9
2  Cc1ccc2ccc(NC(=O)OCCCNCCCOC(=O)Nc3ccc4ccccc4n3)nc2n1            27.7
3                 NCCCOC(=O)Nc1cc2ccccc2cn1            28.1
4              Cc1ccc2ccc(NC(=O)OCCCN)nc2n1              28
5  Cc1ccc2ccc(NC(=O)OCCCNCCCOC(=O)Nc3ccccn3)nc2n1            27.8
6  Cc1ccc2ccc(NC(=O)OCCCNCCCOC(=O)Nc3cc4ccccc4cn3)nc2n1            33.6
